ASSAYED_SYSTEM: Disintegrin and metalloproteinase domain-containing protein 17 (Homo sapiens, UniProt P78536)
Sequence (P78536 whole entry, the tested form may be a part): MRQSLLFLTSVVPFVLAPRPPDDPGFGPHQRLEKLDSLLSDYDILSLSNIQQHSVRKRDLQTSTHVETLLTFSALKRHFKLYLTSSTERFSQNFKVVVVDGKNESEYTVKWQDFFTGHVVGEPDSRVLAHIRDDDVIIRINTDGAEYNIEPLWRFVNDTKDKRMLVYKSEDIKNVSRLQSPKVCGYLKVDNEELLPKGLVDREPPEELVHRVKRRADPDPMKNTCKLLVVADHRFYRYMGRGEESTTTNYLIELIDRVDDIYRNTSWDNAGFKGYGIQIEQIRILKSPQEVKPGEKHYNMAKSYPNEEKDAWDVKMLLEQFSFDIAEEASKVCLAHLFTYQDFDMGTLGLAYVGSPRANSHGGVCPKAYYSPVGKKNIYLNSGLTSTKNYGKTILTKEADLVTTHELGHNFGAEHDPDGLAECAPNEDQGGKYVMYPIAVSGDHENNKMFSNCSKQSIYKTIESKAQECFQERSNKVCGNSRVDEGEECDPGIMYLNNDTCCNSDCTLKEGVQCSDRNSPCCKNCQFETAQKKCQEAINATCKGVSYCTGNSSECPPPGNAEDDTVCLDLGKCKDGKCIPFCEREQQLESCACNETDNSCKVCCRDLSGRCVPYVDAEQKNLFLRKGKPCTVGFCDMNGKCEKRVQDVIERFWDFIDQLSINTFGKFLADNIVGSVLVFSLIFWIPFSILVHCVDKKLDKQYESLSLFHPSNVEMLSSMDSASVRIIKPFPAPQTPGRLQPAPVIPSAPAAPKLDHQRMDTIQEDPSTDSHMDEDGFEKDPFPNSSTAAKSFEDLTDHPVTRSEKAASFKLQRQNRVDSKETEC
ASSAY_REMARKS: Inhibition of TACE
// assign 1.0 if IC50 falls strictly below 40 nM, else 0.0 (ties count as 0.0)

Study these solved cases before continuing.
CC#CCOc1ccc(S(=O)(=O)N2C[C@H](CCO)SC(C)(C)[C@@H]2C(=O)NO)cc1 | 1.0
CC#CCOc1ccc(S(=O)(=O)N2C[C@H](CNS(C)(=O)=O)SC(C)(C)[C@@H]2C(=O)NO)cc1 | 1.0

Req: Please indicate whether the reported IC50 of CC(C)(C)OC(=O)NCC#CCOc1ccc(S(=O)(=O)N2CCSC(C)(C)[C@@H]2C(=O)NO)cc1 is strictly below 40 nM.
Resp: 0.0

Req: Please indicate whether the reported IC50 of CC(C)(C)OC(=O)NCCC#CCOc1ccc(S(=O)(=O)N2CCSC(C)(C)[C@@H]2C(=O)NO)cc1 is strictly below 40 nM.
Resp: 0.0

Req: Please indicate whether the reported IC50 of CC1(C)SCCN(S(=O)(=O)c2ccc(OCC#CCCO)cc2)[C@H]1C(=O)NO is strictly below 40 nM.
Resp: 0.0

Req: Please indicate whether the reported IC50 of CCCCOc1ccc(S(=O)(=O)N2CCSC(C)(C)[C@@H]2C(=O)NO)cc1 is strictly below 40 nM.
Resp: 0.0

Req: Please indicate whether the reported IC50 of CC#CCOc1ccc(S(=O)(=O)N2C[C@H](CCN(CC)CC)SC(C)(C)[C@@H]2C(=O)NO)cc1 is strictly below 40 nM.
Resp: 0.0

Req: Please indicate whether the reported IC50 of C#CCCOc1ccc(S(=O)(=O)N2CCSC(C)(C)[C@@H]2C(=O)NO)cc1 is strictly below 40 nM.
Resp: 1.0

Req: Please indicate whether the reported IC50 of CC1(C)SCCN(S(=O)(=O)c2ccc(OCC#CCCN)cc2)[C@H]1C(=O)NO is strictly below 40 nM.
Resp: 0.0

Req: Please indicate whether the reported IC50 of C/C=C/COc1ccc(S(=O)(=O)N2CCSC(C)(C)[C@@H]2C(=O)NO)cc1 is strictly below 40 nM.
Resp: 1.0

Req: Please indicate whether the reported IC50 of CCCCC#CCOc1ccc(S(=O)(=O)N2CCSC(C)(C)[C@@H]2C(=O)NO)cc1 is strictly below 40 nM.
Resp: 1.0

###

Parameter pIC50: see the listing below.
ASSAYED_SYSTEM: Collagenase 3 (Homo sapiens, UniProt P45452)
ASSAY_REMARKS: Inhibition of MMP13
Kindly note that pIC50 refers to -log10 of the concentration in mol/L and answer with the value alone.

Some molecules with known pIC50 results, for comparison:
CCCCOc1ccc(S(=O)(=O)N2CCSC(C)(C)[C@@H]2C(=O)NO)cc1 | 8.05
CC1(C)SCCN(S(=O)(=O)c2ccc(OCC#CCCN)cc2)[C@H]1C(=O)NO | 7.57
C/C=C/COc1ccc(S(=O)(=O)N2CCSC(C)(C)[C@@H]2C(=O)NO)cc1 | 8.70
C#CCOc1ccc(S(=O)(=O)N2CCSC(C)(C)[C@@H]2C(=O)NO)cc1 | 9.00
CC(C)(C)OC(=O)NCCC#CCOc1ccc(S(=O)(=O)N2CCSC(C)(C)[C@@H]2C(=O)NO)cc1 | 8.15

The molecule identified as CC1(C)SCCN(S(=O)(=O)c2ccc(OCC#CCCCO)cc2)[C@H]1C(=O)NO registered its pIC50 at 7.07

The molecule identified as CC#CCOc1ccc(S(=O)(=O)N2C[C@H](CNS(C)(=O)=O)SC(C)(C)[C@@H]2C(=O)NO)cc1 registered its pIC50 at 7.85

The molecule identified as C#CCCCOc1ccc(S(=O)(=O)N2CCSC(C)(C)[C@@H]2C(=O)NO)cc1 registered its pIC50 at 8.10

The molecule identified as CC1(C)SCCN(S(=O)(=O)c2ccc(OCC#CCO)cc2)[C@H]1C(=O)NO registered its pIC50 at 8.10

The molecule identified as CC1(C)SCCN(S(=O)(=O)c2ccc(OCC#CCCCN)cc2)[C@H]1C(=O)NO registered its pIC50 at 8.05

The molecule identified as CC#CCOc1ccc(S(=O)(=O)N2C[C@H](CCO)SC(C)(C)[C@@H]2C(=O)NO)cc1 registered its pIC50 at 7.64

The molecule identified as CC#CCOc1ccc(S(=O)(=O)N2C[C@H](CCN(CC)CC)SC(C)(C)[C@@H]2C(=O)NO)cc1 registered its pIC50 at 7.32

The molecule identified as CC(C)(C)OC(=O)NCCCCC#CCOc1ccc(S(=O)(=O)N2CCSC(C)(C)[C@@H]2C(=O)NO)cc1 registered its pIC50 at 8.40

The molecule identified as CC#CCOc1ccc(S(=O)(=O)N2C[C@H](CC(=O)O)SC(C)(C)[C@@H]2C(=O)NO)cc1 registered its pIC50 at 8.15

The molecule identified as CC(C)(C)OC(=O)NCCCC#CCOc1ccc(S(=O)(=O)N2CCSC(C)(C)[C@@H]2C(=O)NO)cc1 registered its pIC50 at 8.70
